test system: Staphylococcus aureus; experiment: Antibacterial activity against Staphylococcus aureus ATCC 25923 assessed as bacterial growth inhibition incubated for 18 hrs by broth microdilution method; assay type: functional
Where a SMILES comes first, the peptide text is derived from it. Bridges are numbered along the chain shown (N, C = ends). [ ]: non-standard residue; d: D form. The star is where a group is joined. Heptanoyl(6-Me) = CC(C)CCCCC(=O)*; Dab = NCC[C@H](N)C(=O)O; Hexanoyl = CCCCCC(=O)*
measured-endpoint: MIC

Answer with reported MIC of CCCCCC(=O)N[C@@H](CCN)C(=O)N[C@H](C(=O)N[C@@H](CCN)C(=O)N[C@H](Cc1ccccc1)C(=O)N[C@@H](CC(C)C)C(=O)N[C@@H](CCN)C(=O)N[C@@H](C(=O)N[C@@H](CC(C)C)C(=O)N[C@@H](CO)C(N)=O)C(C)C)[C@@H](C)CC (Hexanoyl-[Dab]I[Dab][dF]L[Dab][dV]LS-NH2)
64 µg/mL

Report MIC, nothing else, for this molecule: CCCCCC(=O)N[C@@H](CCN)C(=O)N[C@H](C(=O)N[C@H]1CCNC(=O)[C@H]([C@@H](C)O)NC(=O)[C@H](CC(C)C)NC(=O)[C@@H](C(C)C)NC(=O)[C@H](CCN)NC(=O)[C@H](CC(C)C)NC(=O)[C@@H](Cc2ccccc2)NC1=O)[C@@H](C)CC
32 µg/mL

Report MIC, nothing else, for this molecule: CO[C@H]1/C=C/O[C@@]2(C)Oc3c(C)c(O)c4c(O)c(c(/C=N/N5CCN(C)CC5)c(O)c4c3C2=O)NC(=O)/C(C)=C\C=C\[C@H](C)[C@H](O)[C@@H](C)[C@@H](O)[C@@H](C)[C@H](OC(C)=O)[C@@H]1C
< 1 µg/mL

Write down MIC measured for item CC(C)CCCCC(=O)N[C@@H](CCN)C(=O)N[C@H](C(=O)N[C@@H](CCN)C(=O)N[C@H]1CCNC(=O)[C@H]([C@@H](C)O)NC(=O)[C@H](CCN)NC(=O)[C@H](CCN)NC(=O)[C@H](CC(C)C)NC(=O)[C@@H](Cc2ccccc2)NC(=O)[C@H](CCN)NC1=O)[C@@H](C)O ({Heptanoyl(6-Me)}-[Dab]T[Dab][Dab][Dab][dF]L[Dab][Dab]T; lactam 4-C)
16 µg/mL

---

system: Cell membrane; test: Induction of outer membrane permeabilization in Escherichia coli ATCC 25922 assessed as increase in fluorescence intensity at 2 times MIC measured for 12 hrs by NPN uptake assay; assay type: subcellular
Active and inactive are the calls of the source. The rule behind the calls is not given here. Where a SMILES comes first, the peptide text is derived from it. Bridges are numbered along the chain shown (N, C = ends). [ ]: non-standard residue; d: D form. The star is where a group is joined. Heptanoyl(6-Me) = CC(C)CCCCC(=O)*; dDab = NCC[C@@H](N)C(=O)O; Dab = NCC[C@H](N)C(=O)O
Outcome field: choose from YES for active, NO for inactive

>  <compound>
CCCCCCCC(=O)N[C@@H](CCN)C(=O)N[C@H](C(=O)N[C@@H](CCN)C(=O)N[C@H](Cc1ccccc1)C(=O)N[C@@H](CC(C)C)C(=O)N[C@@H](CCN)C(=O)N[C@@H](C(=O)N[C@@H](CC(C)C)C(=O)N[C@@H](Cc1ccc(O)cc1)C(N)=O)C(C)C)[C@@H](C)CC

>  <cat>
NO

$$$$
>  <compound>
CC(C)CCCCC(=O)N[C@@H](CCN)C(=O)N[C@H](C(=O)N[C@@H](CCN)C(=O)N[C@H]1CCNC(=O)[C@H]([C@@H](C)O)NC(=O)[C@H](CCN)NC(=O)[C@H](CCN)NC(=O)[C@H](CC(C)C)NC(=O)[C@@H](Cc2ccccc2)NC(=O)[C@@H](CCN)NC1=O)[C@@H](C)O ({Heptanoyl(6-Me)}-[Dab]T[Dab][Dab][dDab][dF]L[Dab][Dab]T; lactam 4-C)

>  <cat>
YES

$$$$

Outcome? CC[C@H](C)[C@@H]1NC(=O)[C@H](CCN)NC(=O)C[C@@H](C(C)C)OC(=O)[C@H]([C@@H](C)O)NC(=O)[C@H](CC(C)C)NC(=O)[C@@H](C(C)C)NC(=O)[C@H](CCN)NC(=O)[C@H](CC(C)C)NC(=O)[C@@H](Cc2ccccc2)NC(=O)[C@H](CCN)NC1=O
YES

GET /call?item= CCCCCCC(=O)N[C@@H](CCN)C(=O)N[C@H](C(=O)N[C@@H](CCN)C(=O)N[C@H](Cc1ccccc1)C(=O)N[C@@H](CC(C)C)C(=O)N[C@@H](CCN)C(=O)N[C@@H](C(=O)N[C@@H](CC(C)C)C(=O)N[C@@H](Cc1ccc(O)cc1)C(N)=O)C(C)C)[C@@H](C)CC returns the recorded outcome of this test.
YES

Hey, just so you know, these numbers are from ChEMBL document CHEMBL5331122.
